target: DRB1*1302 (human, UniProt P01903 26-216, limits assumed); test: inhibition of 125I-labelled probe peptide binding to purified HLA class II
PROPERTY MEASURED: IC50 (nM)
I only need the number, in nM, no unit after it.

Ask | # get_value(readout='IC50', item= DTFRKLFRVYSNDLR )
Reply | 66
